target: DHODH (Homo sapiens (Human)); test: DHODH activity assay (coupled enzyme assay, DCIP reduction, absorbance at 610 nm); format: biochemical; conditions: compound at 10 uM; read-out: inh @ 10 uM hDHODH (%)
Sequence (Q02127 whole entry): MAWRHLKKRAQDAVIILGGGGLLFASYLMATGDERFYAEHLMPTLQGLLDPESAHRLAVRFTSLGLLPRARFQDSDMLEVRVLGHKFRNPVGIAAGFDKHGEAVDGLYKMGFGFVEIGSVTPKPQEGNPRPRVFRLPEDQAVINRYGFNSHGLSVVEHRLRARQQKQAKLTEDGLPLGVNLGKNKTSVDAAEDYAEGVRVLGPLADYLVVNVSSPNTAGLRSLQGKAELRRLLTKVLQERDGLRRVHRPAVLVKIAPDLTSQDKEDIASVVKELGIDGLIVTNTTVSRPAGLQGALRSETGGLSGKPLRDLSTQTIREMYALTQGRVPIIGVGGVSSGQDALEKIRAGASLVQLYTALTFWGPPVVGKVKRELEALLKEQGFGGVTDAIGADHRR
Quick reference: inhibition at 10 µM of the listed items.
Give the figure together with its unit, number first.

These solved cases illustrate the format of a correct answer.
Q. Assign inhibition at 10 µM to the following record: Cc1cc(C(=O)O)c2[nH]c(-c3ccc(-c4ccc(O)c(O)c4)cc3)nc2c1 [I91]
A. 94.2%

Q. // Input: Cc1cc(C(=O)O)c2nc(-c3ccc(-c4ccc(CO)cc4)cc3)[nH]c2c1 [I170] . Output its inhibition at 10 µM only.
A. 84%

Q. Read the entry O=C(O)c1cccc2[nH]c(-c3c(F)c(F)c(-c4ccc(F)cc4)c(F)c3F)nc12 [I133] and write its reported inhibition at 10 µM.
A. 101%

Q. Check the records and state inhibition at 10 µM for Cc1cc(C(=O)O)c2nc(-c3ccc(-c4ccc(Oc5ccccc5C=O)cc4)cc3)[nH]c2c1 [I142]
A. 84.7%

Q. Consider the molecule O=C(O)c1cccc2[nH]c(-c3c(F)c(F)c(-c4cc(F)cc(F)c4)c(F)c3F)nc12 [I129] . State its measured inhibition at 10 µM.
A. 90.8%

New cases:
Q. Give inhibition at 10 µM for Cc1cc(C(=O)O)c2nc(-c3ccc(-c4ccc(Oc5ccccc5C(=O)O)cc4)cc3)[nH]c2c1 [I137]
A. 65.1%

Q. Specify inhibition at 10 µM for Cc1cc(C(=O)O)c2[nH]c(-c3ccc(-c4ccccc4F)cc3F)nc2c1 [I25] and stop.
A. 94%

Q. Consider the molecule Cc1cc(C(=O)O)c2nc(-c3ccc(-c4ccccc4)s3)[nH]c2c1 [I191] . State its measured inhibition at 10 µM.
A. 40.7%

Origin of values: patent US9006454B2
